system: Syrian golden hamster; test: Protective activity against ischemia/reperfusion-induced increase in macromolecular permeability in iv dosed golden hamster cheek pouch administered 10 mins before onset of reperfusion; assay type: functional, Mesocricetus auratus
Categorized via Activity: low bin = under 30%, mid bin = from 30% up to 50%, high bin = 50% and over

{"GIVEN SMILES": "C/[N+]([O-])=C/c1ccc(Cl)cc1", "ASSIGNED CLASS": "low bin"}
{"GIVEN SMILES": "C/[N+]([O-])=C/c1ccco1", "ASSIGNED CLASS": "high bin"}
{"GIVEN SMILES": "CC(C)(C)NO", "ASSIGNED CLASS": "low bin"}
{"GIVEN SMILES": "COc1cc(/C=[N+](\\[O-])C(C)(C)C)ccc1OCc1ccccc1", "ASSIGNED CLASS": "mid bin"}
{"GIVEN SMILES": "C/[N+]([O-])=C/c1cccc(Oc2ccccc2)c1", "ASSIGNED CLASS": "high bin"}
{"GIVEN SMILES": "Cc1ccc(/C=[N+](/C)[O-])cc1", "ASSIGNED CLASS": "low bin"}
{"GIVEN SMILES": "Cc1ccc(/C=[N+](\\[O-])C(C)(C)C)cc1", "ASSIGNED CLASS": "high bin"}
{"GIVEN SMILES": "CNO", "ASSIGNED CLASS": "mid bin"}
{"GIVEN SMILES": "CC(C)(C)/[N+]([O-])=C/c1cccc(Oc2ccccc2)c1", "ASSIGNED CLASS": "low bin"}
{"GIVEN SMILES": "CC(C)(C)/[N+]([O-])=C/c1ccc(Cl)cc1", "ASSIGNED CLASS": "high bin"}
{"GIVEN SMILES": "CC(C)(C)/[N+]([O-])=C/c1ccc2c(c1)OCO2", "ASSIGNED CLASS": "mid bin"}
